system: HIV-1NL4-3; experiment: P4-MAGI assay; format: cell-based; conditions: Human immunodeficiency virus 1, 24 h, P4 cells, 24 hour incubation, β-galactosidase expression; read-out: P4-MAGI IC50
pIC50: −log10 of the molar value.
Record rule met whenever pIC50 is at 7 or higher; record rule not met when lower.

compound	target_entity	class_label
C=C(C)[C@@H]1CC[C@]2(C(=O)NCCc3cccc(C(=O)NCc4ccc(C(=O)N5CCN(C(=O)OC(C)(C)C)C(C(=O)OC)C5)cc4)c3)CC[C@]3(C)C(CCC4[C@@]5(C)CC[C@H](O)C(C)(C)C5CC[C@]43C)C12 (stereo partly shown)	HIV-1NL4-3	rule met
C=C(C)[C@@H]1CC[C@]2(C(=O)NCc3cccc(C(=O)NCc4cccc(C(=O)O)c4C)c3C)CC[C@]3(C)C(CCC4[C@@]5(C)CC[C@H](O)C(C)(C)C5CC[C@]43C)C12 (stereo partly shown)	HIV-1NL4-3	rule not met
C=C(C)[C@@H]1CC[C@]2(C(=O)NCCc3cccc(C(=O)NCc4ccc(C(=O)N5CC(O)C[C@@H]5C(=O)O)cc4)c3)CC[C@]3(C)C(CCC4[C@@]5(C)CC[C@H](O)C(C)(C)C5CC[C@]43C)C12 (stereo partly shown)	HIV-1NL4-3	rule met
C=C(C)[C@@H]1CC[C@]2(C(=O)NCc3cccc(C(=O)NCCc4ccc(C(=O)O)c(F)c4)c3)CC[C@]3(C)C(CCC4[C@@]5(C)CC[C@H](O)C(C)(C)C5CC[C@]43C)C12 (stereo partly shown)	HIV-1NL4-3	rule met
C=C(C)[C@@H]1CC[C@]2(C(=O)NCc3cccc(CNC(=O)c4ccc(C(=O)O)c(C(=O)O)c4)c3)CC[C@]3(C)C(CCC4[C@@]5(C)CC[C@H](O)C(C)(C)C5CC[C@]43C)C12 (stereo partly shown)	HIV-1NL4-3	rule not met
C=C(C)[C@@H]1CC[C@]2(C(=O)NCCc3cccc(C(=O)NCc4ccc(OCCCN5CCN(S(=O)(=O)CC)CC5)c(C(=O)O)c4)c3)CC[C@]3(C)C(CCC4[C@@]5(C)CC[C@H](O)C(C)(C)C5CC[C@]43C)C12 (stereo partly shown)	HIV-1NL4-3	rule met
CC(=O)[C@@H]1CC[C@]2(C(=O)NCCc3cccc(C(=O)NCc4ccc(C(=O)O)cc4)c3)CC[C@]3(C)C(CCC4[C@@]5(C)CC[C@H](O)C(C)(C)C5CC[C@]43C)C12 (stereo partly shown)	HIV-1NL4-3	rule met
C=C(C)[C@@H]1CC[C@]2(C(=O)NCc3cccc(C(=O)NCc4cc(C(=O)OC)ccc4F)c3)CC[C@]3(C)C(CCC4[C@@]5(C)CC[C@H](O)C(C)(C)C5CC[C@]43C)C12 (stereo partly shown)	HIV-1NL4-3	rule not met

----------
test system: HIV-1NL4-3; assay: P4-MAGI assay; type: cell-based; conditions: Human immunodeficiency virus 1, 24 h, P4 cells, 24 hour incubation, β-galactosidase expression; read-out: P4-MAGI IC50
pIC50: −log10 of the molar value.
Parameter pIC50: see the listing below.

molecule	pIC50
C=C(C)[C@@H]1CC[C@]2(C(=O)NCCc3cccc(C(=O)Nc4cccc(C(=O)O)c4)c3)CC[C@]3(C)C(CCC4[C@@]5(C)CC[C@H](O)C(C)(C)C5CC[C@]43C)C12 (some centres unmarked)	7.51
C=C(C)[C@@H]1CC[C@]2(C(=O)NCCc3cccc(C(=O)NCc4ccc(C(=O)N[C@H](Cc5ccc(O)cc5)C(=O)O)cc4)c3)CC[C@]3(C)C(CCC4[C@@]5(C)CC[C@H](O)C(C)(C)C5CC[C@]43C)C12 (some centres unmarked)	8.15
C=C(C)[C@@H]1CC[C@]2(C(=O)NCCc3cccc(C(=O)NCc4ccc(C(=O)N(C)CCc5ccccn5)cc4)c3)CC[C@]3(C)C(CCC4[C@@]5(C)CC[C@H](O)C(C)(C)C5CC[C@]43C)C12 (some centres unmarked)	7.97
C=C(C)[C@@H]1CC[C@]2(C(=O)NCc3ccnc(C(=O)NCCc4ccc(C(=O)O)cc4)c3)CC[C@]3(C)C(CCC4[C@@]5(C)CC[C@H](O)C(C)(C)C5CC[C@]43C)C12 (some centres unmarked)	6.92
C=C(C)[C@@H]1CC[C@]2(C(=O)NCc3cccc(CNCc4nc5ccc(C(=O)O)cc5[nH]4)c3)CC[C@]3(C)C(CCC4[C@@]5(C)CC[C@H](O)C(C)(C)C5CC[C@]43C)C12 (some centres unmarked)	6.62
